assay: small-molecule microarray binders of probe aDKK1, primary screen, biochemical, biotinylated probe, 635/667 nm fluorescence (AID 1099); conditions: higher = more signal;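 also: score merges 667nm spot fluorescence with signal to noise across triplicate slides; reference of the scale not given here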
Each record here notes measured composite z-score.
Give the figure only, with no unit attached.

# count of solved cases: 5
>>> reading("CCOC(=O)C1=C[C@@H](C(C)(C)C)N(S(=O)(=O)c2ccc(C)cc2)[C@H]1c1ccccc1Cl")
1.18
>>> reading("COc1cccc(C[C@H]2C[C@@H](CO[Si](C(C)C)(C(C)C)C(C)C)N3C(=O)[C@@]4(C(C)=O)O[C@@]23[C@@H]2C(=O)N(C)C(=O)[C@@H]24)c1")
-0.0648
>>> reading("CCCCC(=C=CC[C@@H](O)c1cccc(OCCO)c1)C[C@@H](O)COCc1ccccc1")
-0.17
>>> reading("CC(=O)NCCCC[C@@H]1NC(=O)[C@H]2C[C@@H](C(=O)NCCCCCC[N+](C)(C)C)[C@@H](c3ccc(O)cc3)N2C1=O")
-0.186
>>> reading("COC(=O)C1=CC(CCCO)=CC(C2CC2)N(Cc2cccc(OC(F)(F)F)c2)C=C1C(=O)OC (centres undefined)")
0.0765

Query: // query composite z-score value for entry `COCCOC(=O)N1C(=O)[C@@]2(c3cc(C#CCCO)ccc31)[C@H](C(=O)N1CCN(c3ncccn3)CC1)[C@H]1C(=O)O[C@H](c3ccccc3)[C@H](c3ccccc3)N1[C@@H]2c1ccc(O)cc1`
Reply: -0.499

Query: // query composite z-score value for entry `O=C1N(Cc2ccccc2)c2ccccc2[C@H]2OC(c3ccc(OCCCO)cc3)=N[C@@]12Cc1ccccc1`
Reply: 0.655

Query: // query composite z-score value for entry `C#CCN=C(N)N`
Reply: 0.0623

Query: // query composite z-score value for entry `CC(C)[Si](C#CCCCC#N)(O[C@H](c1ccccc1)c1cn([C@H](C)c2ccccc2)nn1)C(C)C`
Reply: 0.0086

Query: // query composite z-score value for entry `Cc1c(-c2ccc(-c3ccc(Cl)c(Cl)c3)o2)nc(-c2ccccc2)c2c1CO[Si]2(C(C)C)C(C)C`
Reply: -0.186

###

assay: small-molecule binders of probe aNOTCH2, primary screen, biochemical, small-molecule microarray, 635/667 nm fluorescence (AID 1121); conditions: higher = more signal;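 also: score merges feature fluorescence read at 667 nm with its signal to noise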
Each record here notes measured composite z-score.
Give the figure only, with no unit attached.

>>> reading("CCC[C@@H]1[C@@H](Sc2ccccc2)[C@@H](C(=O)O)[C@H](c2ccc(C)cc2)N1S(=O)(=O)c1ccc(C)cc1")
-0.0794
>>> reading("COc1cc2c(cc1O)C(c1ccc(CN3CCCC3)cc1)N(Cc1cccc(OC(F)(F)F)c1)CC2 (centres undefined)")
-0.207
>>> reading("COc1ccc(CCNC(=O)[C@@]2(Sc3ccc(C)cc3)CC(=O)N(C(C)C)[C@@H]2c2ccc(CO)cc2)cc1")
-0.124

// switching to the query compound
Query: // query composite z-score value for entry `COCCOC(=O)N1C(=O)[C@@]2(c3cc(C#CCCO)ccc31)[C@H](c1ccccc1OCCO)N1[C@H](c3ccccc3)[C@H](c3ccccc3)OC(=O)[C@H]1[C@@H]2C(=O)N1CCc2cc(OC)c(OC)cc2C1`
Reply: -0.101

###

Each record here notes measured composite z-score.
test: small-molecule binders of probe aInhba, primary screen, biochemical, small-molecule microarray, 635/667 nm fluorescence (AID 1148); conditions: higher = more signal;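 also: score merges 667nm spot fluorescence with signal-to-noise for antibody binding to printed compounds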

# count of solved cases: 5
>>> reading("Cc1ccc(S(=O)(=O)N2[C@@H](c3ccccc3)C(C(=O)O)=CC[C@H]2c2ccc(C#N)cc2)cc1")
-0.148
>>> reading("COc1ccc([Si](C)(C)[C@H]2[C@H](CC(=O)N3Cc4ccccc4C[C@H]3CO)O[C@@]3(C(=O)N(Cc4cccc(N5C(=O)c6cccc7cccc5c67)c4)c4ccccc43)[C@@H]2C)cc1")
-0.0107
>>> reading("CCOC(=O)C[C@H]1[C@H](OC(=O)Cc2ccc3c(c2)OCO3)[C@@H](NC(=O)c2ccccc2)c2cc(OCCCO)ccc2N1C(=O)Cc1ccc(OC)cc1")
-0.045
>>> reading("C=CC[C@]1(C(=O)OC)N=C(c2ccc(OCCCO)cc2)O[C@H]1c1ccccc1N=[N+]=[N-]")
0.707
>>> reading("[N-]=[N+]=NCc1ccccc1[C@@H]1OC(c2ccc(OCCCO)cc2)=N[C@]1(Cc1ccccc1)C(=O)NCc1ccccc1")
-0.0267

Query: // query composite z-score value for entry `CCCCCCc1nc(-c2ccc(OC)nc2)cc2c1[Si](C(C)C)(C(C)C)OC2`
Reply: -0.0963

###

tested on: XIP peptide (Xip251-270) binding; assay: small-molecule binders of XIP peptide, primary screen, biochemical, small-molecule microarray, fluorescence 635/667 nm, 0.1 µg/mL protein (AID 1182); conditions: fluorescent protein binding, 635 nm, higher = more signal, called active from +8 up or from −8 down
Lab note: anything with composite z-score at or over 0.5 counts as condition met; the rest go in condition not met.

Query: Check if composite z-score >= 0.5 (inclusive). Item: C=CCC(OC(C)=O)[C@@H]1[C@@H](N(Cc2ccc(-c3cccc(C(F)(F)F)c3)o2)C(=O)Cc2ccc(F)cc2)c2cc(OCCCO)ccc2N1C(=O)c1ccc2ccccc2n1 (stereo not given in full)
Reply: condition not met

Query: Check if composite z-score >= 0.5 (inclusive). Item: `CO[C@H]1O[C@H](CO)[C@@H](OC(=O)Nc2ccc3c(c2)OCO3)[C@@H]2OC(=O)[C@@H](Cc3ccccc3)C/C=C/C[C@H](Cc3ccccc3)C(=O)O[C@@H]12`
Reply: condition not met

###

assay: small-molecule binders of probe aInhba, primary screen, biochemical, small-molecule microarray, 635/667 nm fluorescence (AID 1148); conditions: higher = more signal;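 also: score merges 667nm spot fluorescence with signal-to-noise for antibody binding to printed compounds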
Each record here notes measured composite z-score.
Give the figure only, with no unit attached.

>>> reading("COC(=O)[C@@]1(Cc2ccccc2)[C@H]2c3cc(C(=O)N4CCCC4)n(Cc4ccc(C(F)(F)F)nc4)c3C[C@H]2CN1C(=O)c1ccccc1")
0.446
>>> reading("CCCCN1CC=CC23O[C@@H]4C=CCOC(=O)[C@@H]4[C@H]2C(=O)N(C(CO)C(C)C)[C@@H]3C1=O (some centres undefined)")
-0.34
>>> reading("COCCOC(=O)N1C(=O)[C@@]2(c3cc(C#Cc4ccc(OC)cc4)ccc31)[C@H](C(=O)Nc1nc3ccccc3s1)[C@H]1C(=O)O[C@H](c3ccccc3)[C@H](c3ccccc3)N1[C@@H]2c1ccccc1OCCO")
-0.0566
>>> reading("C=CCOC(=O)[C@@H]1[C@H]2C(=O)O[C@H](c3ccccc3)[C@H](c3ccccc3)N2[C@H](c2ccc(OCCOC(=O)[C@H]3C[C@H]4C(=O)NCC(=O)N4[C@H]3c3ccc(O)cc3)cc2)[C@@]12C(=O)Nc1ccc(I)cc12")
-0.0163

Query: // query composite z-score value for entry `CCCC[C@@H]1C[C@H]1[C@@H](NC(=O)c1ccc(C(F)(F)F)cc1)c1ccc(C(=O)OC)cc1`
Reply: -0.0092

Query: // query composite z-score value for entry `COC(=O)[C@@]1(Cc2ccccc2CN=[N+]=[N-])COC(c2ccc(OCCCO)cc2)=N1`
Reply: -0.203

Query: // query composite z-score value for entry `CN(C)C(=O)[C@]1(Cc2ccccc2)N=C(c2ccc(OCCCO)cc2)O[C@@H]1c1ccccc1`
Reply: 0.0184

###

assay: small-molecule binders of probe aInhba, primary screen, biochemical, small-molecule microarray, 635/667 nm fluorescence (AID 1148); conditions: higher = more signal;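 also: score merges 667nm spot fluorescence with signal-to-noise for antibody binding to printed compounds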
Each record here notes measured composite z-score.
Give the figure only, with no unit attached.

# count of solved cases: 3
>>> reading("CO[C@H]1O[C@H](CO)[C@@H](OC(=O)Nc2ccc3c(c2)OCO3)[C@@H]2OC(=O)[C@@H](Cc3ccccc3)C/C=C/C[C@H](Cc3ccccc3)C(=O)O[C@@H]12")
0.24
>>> reading("COCCOC(=O)N1C(=O)[C@@]2(c3cc(C#CC4(O)CCCCCC4)ccc31)[C@H](c1ccc(OCCO)cc1)N1[C@H](c3ccccc3)[C@H](c3ccccc3)OC(=O)[C@H]1[C@@H]2C(=O)N1CCCCCCC1")
1.63
>>> reading("Cc1ccc(S[C@]2(C(=O)NCC(F)(F)F)CC(=O)N(C3CCCCC3)[C@@H]2c2ccc(CO)cc2)cc1")
-0.176

// switching to the query molecule
Query: // query composite z-score value for entry CCCCN1CC=CC23O[C@@H]4C=CCOC(=O)[C@@H]4[C@H]2C(=O)N(CCO)[C@@H]3C1=O (some centres undefined)
Reply: 0.059

###

biological target: Calmodulin-1 (Homo sapiens) (UniProt P0DP23); assay: CALM1 binders on microarrays, EGTA buffer, profiling panel, biochemical, small-molecule microarray, Cy5-labelled CALM1 (AID 1111); settings: Cy5-CALM1 binding fluorescence, higher = more signal;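 also: labelled calmodulin applied in Tris saline Tween buffer holding calcium plus EGTA and DTT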
Each record here notes measured composite z-score.
Give the figure only, with no unit attached.

# count of solved cases: 2
>>> reading("C[C@@H](OCc1ccccc1)C1NC(=O)[C@@]23C(=O)N[C@@H](Cc4ccccc4)C2[C@H](C)[C@@]2(C)O[C@H]2C3/C=C/C/C=C\\CNC(=O)[C@H](Cc2ccccc2)NC1=O (stereo partly drawn)")
-0.629
>>> reading("CN(C)CCCC[C@@H]1NC(=O)[C@H]2C[C@@H](C(=O)O)[C@@H](c3cccc(OCCO)c3)N2C1=O")
-0.526

// switching to the query compound
Query: Can you look up composite z-score on Calmodulin-1 (Homo sapiens) (UniProt P0DP23) for `COCCOC(=O)N1C(=O)[C@@]2(c3cc(C#CCCO)ccc31)[C@H](c1ccc(O)cc1)N1[C@H](c3ccccc3)[C@H](c3ccccc3)OC(=O)[C@H]1[C@@H]2C(=O)N1CCc2cc(OC)c(OC)cc2C1` ?
Reply: 0.422

src = PubChem BioAssay
